- method notes: NCI Yeast Anticancer Drug Screen. Data for the rad50 strain (AID 155);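 also: 0% = growth of vehicle-only cultures of the same strain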
- test context: S. cerevisiae rad50 strain growth inhibition; at 33.0 µM; stronger effect = higher value
This is part of a sample that, as a whole, favours compounds with a hit. Of some 79,000 tested, about 15% had one in any assay.
Threshold check on growth inhibition: at or above 30% gives class 1, strictly below gives class 0.

{"molecule": "CC[C@]1(O)C[C@H]2CN(CCc3c([nH]c4ccccc34)[C@@](C(=O)OC)(c3cc4c(cc3OC)N(C)[C@H]3[C@@](O)(C(=O)OC)[C@H](OC(C)=O)[C@]5(CC)C=CCN6CC[C@]43[C@@H]65)C2)C1", "class": "class 0"}
{"molecule": "Cc1ccc2oc(-c3cccc(N)c3)nc2c1", "class": "class 0"}
{"molecule": "CC(C)c1ccc(C2NC(=S)NC3=C2c2ccccc2C3=O)cc1 (centres undefined)", "class": "class 1"}
{"molecule": "COc1ccc2nc(N/N=C/c3sccc3C)cc(C)c2c1", "class": "class 1"}
{"molecule": "O=C(O)CN(CCNC(=O)OCC1c2ccccc2-c2ccccc21)CCNC(=O)OCC1c2ccccc2-c2ccccc21", "class": "class 1"}
{"molecule": "c1cncc(C(Nc2cccc3cccnc23)Nc2cccc3cccnc23)c1", "class": "class 1"}
{"molecule": "CCOc1nc(OCC)nc(-c2cccn2-c2ccccc2)n1", "class": "class 0"}
{"molecule": "CN(NC(=O)/C(=C/C=C/c1ccccc1)NC(=O)c1ccccc1)C1=C(Cl)C(=O)[N+](c2ccccc2)=CC1", "class": "class 1"}
{"molecule": "O=C(Cc1ccccc1)c1ccc(O)cc1", "class": "class 1"}
